The measurements presented in this section are drawn from PubChem BioAssay (NCI).

- Test system: COLO 205 colon
- test: NCI tumour cell line growth inhibition, 48 h
quantity.name: TGI (µM)

compound | target.or.system | result.comparator | reported
COC(=O)CCC(=O)NC1C2CC3CC(C2)CC1C3 (stereo unspecified) | COLO 205 colon | > | 100
C/C(=N\Nc1nc2ccccc2s1)c1cc(C)ncn1 | COLO 205 colon | = | 4.71
C=CCN1CN(c2ccccc2)C2(CCN(CCCC3(c4ccc(F)cc4)OCCO3)CC2)C1=O | COLO 205 colon | = | 37.9
CCC1CN2CCC3(c4ccccc4)CC(C(=O)OC)=CC1C23 (stereo unspecified) | COLO 205 colon | = | 31.1
COc1cc(C2C(Cl)C(=O)N2NC(=O)c2ccc(NC(C)=O)cc2OC)ccc1O (stereo unspecified) | COLO 205 colon | = | 32
O=C(Nc1ccn(CCI)c(=O)n1)c1ccccc1 | COLO 205 colon | > | 100
Oc1ccc(Cl)cc1CNc1nc2ccccc2[nH]1 | COLO 205 colon | = | 32.9
COc1ccc2c(c1OC)C(=O)c1cnccc1C2=O | COLO 205 colon | > | 100
O=C1OC(CN2CCOCC2)CN1/N=C/c1ccc([N+](=O)[O-])o1 (stereo unspecified) | COLO 205 colon | > | 100
COc1cc2c3c(n(CCCN=[N+]=[N-])c(=O)c2cc1OC)-c1ccc(N(C)C)cc1C3=O | COLO 205 colon | > | 100
COCCOC(=O)C(C)=[N+]=[N-] | COLO 205 colon | > | 100

* * *

- System: OVCAR-3 ovarian
- test: NCI tumour cell line growth inhibition, 48 h
Recorded measurements of TGI, one per entry
quantity.name: TGI

compound | reported
CC(=O)OCC(Br)C1(C)CCC(C(C)(C)Br)O1 (centres undefined) | > 100 µM
COc1ccc(OC)c(Nc2nc(-c3c(C)nc4sccn34)cs2)c1 | > 100 µM
CCc1cc2c(oc3cc(C)ccc32)c(=O)n1C | > 10 µM
O=C(/C=C1/Nc2ccc([N+](=O)[O-])cc2NC1O)c1cccc([N+](=O)[O-])c1 (centres undefined) | > 100 µM
COc1ccc(N2C(=O)CC(c3c[nH]c4ncccc34)C2=O)cc1 (centres undefined) | 36.2 µM
Nc1nc(N)c2nc(CNc3ccc(C(=O)NC(CCCCNC(=O)c4ccccc4C(=O)O)C(=O)O)cc3)cnc2n1 (centres undefined) | > 100 µM
COc1cccc(-c2nc(-c3cnccn3)n(COCCO)n2)c1 | > 100 µM
COc1cc(C(=O)Oc2c(C#N)sc3c2c(=O)n(-c2ccccc2)c(=S)n3-c2ccccc2)cc(OC)c1OC | > 100 µM
O=C(O)CCSC(=O)Nc1ccc(N=Nc2ccccc2)cc1 | > 100 µM
CCCCCCC(/C=N/O)C(C)(O)CCC (centres undefined) | > 100 µM
CC(CCCOC(c1ccccc1)(c1ccccc1)c1ccccc1)OC(=O)Nc1ccccc1 (centres undefined) | 26.9 µM
CC(=O)c1cc(C)n2c1CS[C@@H]2c1ccccc1 | > 100 µM
O=c1[nH]c2c(c(=O)[nH]1)SSC2 | 38 µM
Cc1nc(Nc2nc3ccccc3o2)nc(-c2cccc([N+](=O)[O-])c2)c1C(=O)Nc1ccc(F)c(Cl)c1 | 13.8 µM
C=CCCCc1ccc(C(O)CCCCCCCCCCCC)o1 (centres undefined) | 38.8 µM
CCN(CC)CCSCCCNc1c2ccc(Cl)cc2nc2ccc(OC)cc12 | 4.18 µM
NCc1cc(O)c(O)c(O)c1 | > 100 µM
COc1ccc(CCNCCCC2c3ccccc3-c3ccccc32)cc1OC | 31.2 µM
O=C(NS(=O)(=O)c1ccccc1)C(Cc1ccccc1)C(Cc1ccccc1)C(=O)NS(=O)(=O)c1ccccc1 (centres undefined) | > 100 µM
CCCC[C@H]1CCN2C[C@@H](O)[C@@H](O)[C@H]2[C@@H]1O | > 100 µM
CC(C)CCN[C@@H]1CCc2cc(O)c(N3CC(=O)NS3(=O)=O)c(F)c2C1 | > 100 µM
CC(C)c1cc(OCC(O)CO)cc(C(C)C)c1 (centres undefined) | > 100 µM
COc1ccc(Nc2cc(C)nc(N3CCN(c4ccnc5cc(Cl)ccc45)CC3)n2)cc1 | 6.15 µM
CCOC(OC1=C(C#N)CCCC1)C(C)[Se]c1ccccc1 (centres undefined) | > 100 µM
O=C(N/N=C\C(F)(F)F)c1ccncc1 | > 100 µM
O=C(O)C1=C(C(=O)Nc2ccc(NC(=O)C3=C(C(=O)O)C4C=CC3C4)cc2)C2C=CC1C2 | > 100 µM
O=C1c2ccccc2-c2c1c(-c1cccc(Br)c1)nc1ccc3ccccc3c21 | > 100 µM
CCN(CC)CCN(C(=O)c1ccc(F)cc1)c1ccccc1N | > 10 µM
Cc1ccc2c(=O)cc(-c3sc4ccccc4c3C)[nH]c2n1 | 50.1 µM
CCc1n[nH]c(=O)n1CCO | > 100 µM
O=C1C=CC(CC(=O)c2ccc3ccccc3c2)O1 (centres undefined) | 41.6 µM
O=C(O)c1ccccc1NC(=O)C1CCCCC1 | > 100 µM
O=S(=O)(C/C(=N\O)c1ccccc1)c1ccccc1 | > 100 µM
O=C1OC(CN2CCOCC2)CN1/N=C/c1ccc([N+](=O)[O-])o1 (centres undefined) | 67.4 µM
O=S(=O)(NCCNc1nccc(-c2c(-c3ccc(F)cc3)nc3sccn23)n1)c1ccccc1 | 76 µM
C/C=C(\C)C(=O)N[C@H]1C(O)C[C@]2(C)C3CC[C@@]4(C)C(CC[C@@H]4C(C)N(C)C)C3CCC2C1O (some centres undefined) | 19.5 µM
O=C(Nc1ccc(Cl)c(Cl)c1)OCCN1c2ccccc2Sc2ccccc21 | > 10 µM
COc1cc(C2C(Cl)C(=O)N2NC(=O)c2ccc(NC(C)=O)cc2OC)ccc1O (centres undefined) | 53.5 µM
CN1C(Cl)=NS(=O)(=O)c2ccccc21 | > 100 µM
COc1ccc(CCc2nccn2C)cc1OC | > 100 µM
CNC(=O)OCC1C2=C(C(=O)C(C)=C(N)C2=O)N2CC3C(N3C)C12OC (centres undefined) | > 100 µM
COc1ccc(NC2CC(C)N(C(=O)c3ccccc3)O2)cc1 (centres undefined) | > 10 µM
Cc1cc(-c2nc3cccc(F)c3s2)ccc1N | > 100 µM
COC1=C2CC(C)CC(OC)C(O)C(C)/C=C(\C)C(OC(N)=O)C(OC)/C=C\C=C(/C)C(=O)NC(=C(/C=N/N3CCCCC3)C1=O)C2=O (centres undefined) | 4.62 µM
